Hello, the source for this data is patent US10039753B2, in case you need it.

Target: GST-tagged truncated LRRK2 (Homo sapiens, UniProt Q5S007)
Construct: GST-tagged truncated LRRK2 from Invitrogen (Cat # PV4874); GST; purchased Invitrogen PV4874
Sequence (Q5S007 970-2527 limits assumed): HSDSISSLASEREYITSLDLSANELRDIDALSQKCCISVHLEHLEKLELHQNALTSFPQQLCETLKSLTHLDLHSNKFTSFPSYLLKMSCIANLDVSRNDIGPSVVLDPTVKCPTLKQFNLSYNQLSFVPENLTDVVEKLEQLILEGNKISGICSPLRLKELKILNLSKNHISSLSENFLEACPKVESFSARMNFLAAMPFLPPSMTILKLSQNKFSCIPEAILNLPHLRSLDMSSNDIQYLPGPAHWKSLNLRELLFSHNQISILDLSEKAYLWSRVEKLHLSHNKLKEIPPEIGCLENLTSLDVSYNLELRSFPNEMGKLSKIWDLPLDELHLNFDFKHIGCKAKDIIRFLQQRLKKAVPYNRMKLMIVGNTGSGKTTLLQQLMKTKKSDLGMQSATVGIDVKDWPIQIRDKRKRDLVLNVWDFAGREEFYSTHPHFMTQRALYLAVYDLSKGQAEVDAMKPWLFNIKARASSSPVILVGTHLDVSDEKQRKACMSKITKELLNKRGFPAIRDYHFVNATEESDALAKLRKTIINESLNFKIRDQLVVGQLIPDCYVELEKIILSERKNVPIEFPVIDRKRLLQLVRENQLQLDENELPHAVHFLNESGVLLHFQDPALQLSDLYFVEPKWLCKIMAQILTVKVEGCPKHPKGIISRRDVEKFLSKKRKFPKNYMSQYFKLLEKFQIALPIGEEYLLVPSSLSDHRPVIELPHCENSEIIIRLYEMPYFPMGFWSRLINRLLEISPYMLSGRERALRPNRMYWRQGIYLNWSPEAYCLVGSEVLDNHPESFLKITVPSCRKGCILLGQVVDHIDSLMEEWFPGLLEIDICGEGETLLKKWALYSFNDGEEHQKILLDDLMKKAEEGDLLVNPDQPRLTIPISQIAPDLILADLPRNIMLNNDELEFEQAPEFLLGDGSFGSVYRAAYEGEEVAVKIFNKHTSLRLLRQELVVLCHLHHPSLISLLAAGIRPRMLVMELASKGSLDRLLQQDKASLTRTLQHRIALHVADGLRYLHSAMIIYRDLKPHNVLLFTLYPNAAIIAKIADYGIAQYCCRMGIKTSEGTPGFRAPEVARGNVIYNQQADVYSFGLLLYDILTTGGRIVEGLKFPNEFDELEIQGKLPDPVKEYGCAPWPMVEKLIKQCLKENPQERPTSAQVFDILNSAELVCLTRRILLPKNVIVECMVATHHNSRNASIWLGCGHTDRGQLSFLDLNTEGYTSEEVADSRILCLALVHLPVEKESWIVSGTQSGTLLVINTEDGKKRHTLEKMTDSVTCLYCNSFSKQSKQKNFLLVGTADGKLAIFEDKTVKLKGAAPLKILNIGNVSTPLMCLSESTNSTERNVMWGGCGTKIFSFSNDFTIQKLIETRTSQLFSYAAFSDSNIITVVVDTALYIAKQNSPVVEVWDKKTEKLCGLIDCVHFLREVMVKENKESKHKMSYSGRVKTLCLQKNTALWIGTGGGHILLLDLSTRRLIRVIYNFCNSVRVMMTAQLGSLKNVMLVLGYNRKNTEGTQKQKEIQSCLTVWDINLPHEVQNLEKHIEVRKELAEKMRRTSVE
Assay: LRRK2 Assay, Format 2 (Lantha Screen), WT
Type: biochemical
Conditions: geometric mean of 2-4 determinations unless otherwise indicated (a: >=5; b: single determination)
Experimental: LRRK2 kinase activity was measured using Lantha Screen technology from Invitrogen. […] Upon completion, the assay was stopped and detected with a terbium labeled anti-phospho-ERM antibody (Invitrogen, cat # PR8975A). […] After an incubation of 1 hour at room temperature, the plate was read on an Envision with an excitation wavelength of 340 nm and a reading emission at both 520 nm and 495 nm. […] Inhibition of mutant G2019S LRRK2 (Invitrogen cat # PV4881) was measured in the exact same method. […]
Where a name gives a salt, the structure may show the parent alone.
value-type: IC50 (nM)

# example entries with known answers
IC50 for Cc1nn2cc(Cc3nc4cnc5ccc(C#N)cc5c4n3[C@@H]3CC[C@H](F)C3)nc2s1 (single isomer, unassigned; ent-2) [Example 169] is 3.59

# compound Cc1cnc(Cc2nc3cnc4ccc(C#N)cc4c3n2[C@@H]2CCO[C@H](C)C2)s1 ; its IC50 = 6.52

# IC50 of CO[C@H]1C[C@@H](n2c(Cn3cc(C)nn3)nc3cnc4ccc(Cl)cc4c32)C1 = 33.8

The compound Cc1ccn2cc(Cc3nc4cnc5ccc(Cl)cc5c4n3[C@@H]3CCO[C@H](C)C3)nc2n1 showed IC50 equal to 6.06

The compound listed as C[C@@H]1C[C@H](n2c(C(=O)c3ccon3)nc3cnc4ccc(Cl)cc4c32)CCO1 has a reported IC50 of 16.8

IC50 for C[C@@H]1C[C@H](n2c(Cc3coc(C4CC4)n3)nc3cnc4ccc(C#N)cc4c32)CCO1 [Example 122, formate salt] is 4.3

Reported IC50 for C[C@@H]1C[C@H](n2c(Cn3cc(C4CC4)nn3)nc3cnc4ccc(C#N)cc4c32)CCO1 [Example 125, formate salt] was 7

// sample C[C@@H]1C[C@H](n2c(Cc3cncs3)nc3cnc4ccc(C#N)cc4c32)CCO1 [Example 231, formate salt] , its IC50 was 24.9

Memo: Cc1cc(Cc2nc3cnc4ccc(C#N)cc4c3n2[C@@H](C)CF)no1 [Example 243, formate salt] , reported IC50: 48.7

# compound Cc1cnn(Cc2nc3cnc4ccc(Cl)cc4c3n2[C@@H]2CCO[C@H](C)C2)n1 ; its IC50 = 11.2

[1] C[C@@H]1C[C@H](n2c(Cc3noc4ccccc34)nc3cnc4ccc(C#N)cc4c32)CCO1 [Example 154, formate salt]
[2] Cc1cnn(Cc2nc3cnc4ccc(F)cc4c3n2[C@@H]2CCO[C@H](C)C2)c1
[3] CCC(F)(F)Cn1c(Cc2noc(C)n2)nc2cnc3ccc(Cl)cc3c21
Sort low-to-high on IC50, please. Form field (ranking): labels in requested order.
1, 2, 3

---

molecular target: GST-tagged truncated LRRK2 (Homo sapiens, UniProt Q5S007); construct: GST-tagged truncated LRRK2 from Invitrogen (Cat # PV4874); GST; purchased Invitrogen PV4874; assay: LRRK2 Assay, Format 2 (Lantha Screen), WT; type: biochemical; conditions: geometric mean of 2-4 determinations unless otherwise indicated (a: >=5; b: single determination)
pIC50: −log10 of the molar value. Counter-ions that a name gives are not always drawn.
value-type: pIC50

Lookup result for C[C@@H]1C[C@H](n2c(Cc3cn4c(n3)COCC4)nc3cnc4ccc(Cl)cc4c32)CCO1 [Example 192] ; measured pIC50: 7.90

Lookup result for C[C@@H]1C[C@H](n2c(Cc3ccccn3)nc3cnc4ccc(Cl)cc4c32)CCO1 [Example 250, formate salt] ; measured pIC50: 7.98

Reported pIC50 of C[C@@H]1C[C@H](n2c(Cn3ccc(C4CC4)n3)nc3cnc4ccc(Cl)cc4c32)CCO1 [Example 160, formate salt] : 8.21

The reported value for Cc1nc(Cc2nc3cnc4ccc(Cl)cc4c3n2C2C[C@@H](C)[C@@H](F)C2)no1 (single isomer, unassigned) [Example 136] in terms of pIC50 is 7.92

[1] Cc1cn(Cc2nc3cnc4ccc(Cl)cc4c3n2C2CCOC(C)(C)C2)nn1 (stereo not shown) [Example 148, formate salt]
[2] CO[C@H]1CC[C@H](n2c(Cc3cc(C)on3)nc3cnc4ccc(C#N)cc4c32)CC1 [Example 219, formate salt]
[3] COc1ccc(Cc2nc3cnc4ccc(C#N)cc4c3n2[C@@H]2CCO[C@H](C)C2)nc1 [Example 96]
Order the records by pIC50, with each subsequent value no larger than the one before. Output spec: a listing of the labels in the requested order.
3, 1, 2

---

target: mutant G2019S LRRK2 (Homo sapiens, UniProt Q5S007, G2019S); experiment: LRRK2 Assay, Format 1 (Lantha Screen), G2019S mutant
Sequence (Q5S007 970-2527 G2019S limits assumed): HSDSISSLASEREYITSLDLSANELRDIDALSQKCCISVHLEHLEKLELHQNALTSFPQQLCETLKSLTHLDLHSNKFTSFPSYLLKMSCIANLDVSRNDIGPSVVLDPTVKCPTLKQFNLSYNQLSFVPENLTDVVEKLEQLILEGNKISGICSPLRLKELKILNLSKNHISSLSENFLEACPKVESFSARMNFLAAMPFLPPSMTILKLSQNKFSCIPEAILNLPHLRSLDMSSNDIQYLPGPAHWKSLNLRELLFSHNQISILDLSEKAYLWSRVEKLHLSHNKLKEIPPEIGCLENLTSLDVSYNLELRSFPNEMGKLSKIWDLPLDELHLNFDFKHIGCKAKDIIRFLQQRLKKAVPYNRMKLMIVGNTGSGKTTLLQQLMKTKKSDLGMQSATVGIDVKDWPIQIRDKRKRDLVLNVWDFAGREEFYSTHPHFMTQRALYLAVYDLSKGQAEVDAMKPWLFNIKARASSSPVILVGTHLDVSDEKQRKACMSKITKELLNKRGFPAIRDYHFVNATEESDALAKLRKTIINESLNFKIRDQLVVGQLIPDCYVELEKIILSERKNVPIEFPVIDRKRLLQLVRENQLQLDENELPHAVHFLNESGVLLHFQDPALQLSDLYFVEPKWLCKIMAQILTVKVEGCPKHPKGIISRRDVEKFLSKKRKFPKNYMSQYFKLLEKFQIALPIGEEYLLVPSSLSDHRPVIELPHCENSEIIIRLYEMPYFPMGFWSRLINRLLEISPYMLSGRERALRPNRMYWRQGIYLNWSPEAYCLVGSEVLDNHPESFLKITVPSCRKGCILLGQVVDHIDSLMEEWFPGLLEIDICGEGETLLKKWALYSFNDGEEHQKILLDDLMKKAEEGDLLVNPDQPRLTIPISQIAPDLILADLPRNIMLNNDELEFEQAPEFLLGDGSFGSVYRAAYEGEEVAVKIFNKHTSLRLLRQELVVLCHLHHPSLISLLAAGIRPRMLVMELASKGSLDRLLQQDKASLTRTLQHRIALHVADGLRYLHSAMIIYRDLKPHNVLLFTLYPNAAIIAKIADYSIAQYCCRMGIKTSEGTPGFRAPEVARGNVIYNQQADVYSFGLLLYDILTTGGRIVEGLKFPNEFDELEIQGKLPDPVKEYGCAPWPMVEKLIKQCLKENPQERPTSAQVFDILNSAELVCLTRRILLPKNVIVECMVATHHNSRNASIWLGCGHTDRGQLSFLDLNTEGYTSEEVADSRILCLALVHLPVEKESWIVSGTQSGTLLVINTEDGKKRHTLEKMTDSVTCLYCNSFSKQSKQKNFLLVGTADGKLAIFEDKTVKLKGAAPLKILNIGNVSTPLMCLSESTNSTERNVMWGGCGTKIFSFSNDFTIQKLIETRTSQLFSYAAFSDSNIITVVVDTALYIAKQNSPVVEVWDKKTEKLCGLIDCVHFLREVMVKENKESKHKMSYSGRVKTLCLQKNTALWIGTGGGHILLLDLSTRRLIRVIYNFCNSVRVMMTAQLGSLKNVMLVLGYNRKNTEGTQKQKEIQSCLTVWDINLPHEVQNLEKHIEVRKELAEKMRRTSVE
pIC50: −log10 of the molar value. Where a name gives a salt, the structure may show the parent alone.
value-type: pIC50

The examples below pair each entry with its known result.
C[C@H]1C[C@@H](n2c(Cn3cncn3)nc3cnc4ccc(Cl)cc4c32)CCO1 [enantiomer of Example 65] has a reported pIC50 of 6.62

Memo: COc1ccc2ncc3nc(Cc4noc(C)n4)n([C@@H]4CCO[C@H](C)C4)c3c2c1 [Example 87] , reported pIC50: 7.41

Reported pIC50 for CC[C@H]1C[C@@H](n2c(Cc3ccon3)nc3cnc4ccc(Br)cc4c32)CCO1 (racemic) [Example 66] was 7.79

For record c1ccc2c(c1)ncc1nc(Cn3nnc4ccccc43)n(C3CCOCC3)c12 [Example 41] the listed pIC50 is 7.03

The measured pIC50 associated with COc1ccc2ncc3nc(Cn4cc(C)nn4)n([C@@H]4CCO[C@H](C)C4)c3c2c1 [Example 88] reads 8.12

The reported pIC50 of the compound C[C@@H]1C[C@H](n2c(Cc3ccon3)nc3cnc4ccc(C#N)cc4c32)CCO1 [Example 22] was 8.41

Entry F[C@H]1CC[C@@H](n2c(Cc3nc4ccccc4o3)nc3cnc4ccccc4c32)C1 [Example 28] , pIC50 reported as 6.80

Field pIC50 (entry CC1(C)CC(n2c(Cc3cn4ncsc4n3)nc3cnc4ccccc4c32)CCO1 (stereo not drawn) [Example 73, trifluoroacetate salt] ) reads 7.01

Per the records, this compound ( c1ccc2c(c1)ncc1nc(Cc3cscn3)n(C3CCOCC3)c12 [Example 36, formate salt] ) has pIC50 equal to 7.04

Memo: Cc1nc(Cc2nc3cnc4ccc(Cl)cc4c3n2[C@H]2CCO[C@@H](C)C2)no1 [Example 51] , reported pIC50: 7.31

[1] C[C@@H]1C[C@H](n2c(Cc3cscn3)nc3cnc4ccc(C#N)cc4c32)CCO1 [Example 57]
[2] C[C@@H]1C[C@@H](n2c(Cc3ccon3)nc3cnc4ccc(C#N)cc4c32)CCO1 [enantiomer of Example 24]
Smaller pIC50 value, 1 vs 2 ? State the label of the item chosen.
2

---

biological target: GST-tagged truncated LRRK2 (Homo sapiens, UniProt Q5S007); construct: GST-tagged truncated LRRK2 from Invitrogen (Cat # PV4874); GST; purchased Invitrogen PV4874; assay: LRRK2 Assay, Format 2 (Lantha Screen), WT; format: biochemical; settings: geometric mean of 2-4 determinations unless otherwise indicated (a: >=5; b: single determination)
Where a name gives a salt, the structure may show the parent alone.
value-type: IC50 (nM)

Some compounds with recorded IC50:
Entry C[C@@H]1C[C@H](n2c(Cn3cnnn3)nc3cnc4ccc(Cl)cc4c32)CCO1 [Example 129, formate salt] , IC50 reported as 3.64

Lookup result for COc1ccc(Cc2nc3cnc4ccc(C#N)cc4c3n2C2CCOC(C)(C)C2)nc1 (single isomer, unassigned; ent-2) ; measured IC50: 7.53

The recorded IC50 for entry Cc1cc(Cc2nc3cnc4ccc(Cl)cc4c3n2CCF)no1 equals 99.5

Kindly note the recorded IC50 for Cc1cc(Cc2nc3cnc4ccc(C#N)cc4c3n2[C@H]2CCN(C)C2)no1 [Example 218, formate salt] , which is 21.4

[a] Cc1cc(Cc2nc3cnc4ccc(C#N)cc4c3n2C2CCCC2(F)F)no1 (single isomer, unassigned; ent-1) [Example 143]
[b] Cc1cc(Cc2nc3cnc4ccc(C#N)cc4c3n2C2CCC2)no1 [Example 216, formate salt]
[c] Cc1nc(Cc2nc3cnc4ccc(C#N)cc4c3n2[C@@H]2CCO[C@H](C)C2)c(C)o1 [Example 230, formate salt]
List these items ordered by IC50, big to small. Quick reminder: the answer is the labels in the order asked.
a, b, c

---

target: mutant G2019S LRRK2 (Homo sapiens, UniProt Q5S007, G2019S); assay: LRRK2 Assay, Format 1 (Lantha Screen), G2019S mutant
Where a name gives a salt, the structure may show the parent alone.
value-type: IC50 (nM)

These solved cases illustrate the format of a correct answer.
Reported IC50 for C[C@@H]1C[C@H](n2c(Cc3cc(C4CC4)on3)nc3cnc4ccc(C#N)cc4c32)CCO1 was 4.8

Entry under test: Cc1nc(Cc2nc3cnc4ccc(Cl)cc4c3n2[C@@H]2CCO[C@H](C)C2)no1 . Its IC50 was 2.7

Entry under test: Cc1nc(Cc2nc3cnc4ccc(Cl)cc4c3n2C2C[C@@H](C)[C@@H](F)C2)no1 (mixture of isomers) [diastereomer of Example 136] . Its IC50 was 105

[1] Cc1nn2cc(Cc3nc4cnc5ccc(F)cc5c4n3C3CCOC(C)(C)C3)nc2s1 (stereo not shown) [Example 83, trifluoroacetate salt]
[2] Cc1cc(Cc2nc3cnc4ccc(Br)cc4c3n2[C@H]2CCO[C@@H](C)C2)no1 (racemic)
Could you tell me which of these two has the smaller IC50 figure? First: 1 Second: 2 Please respond with the label that marks your chosen entry.
2
(2: 8.2 nM, 1: 21.2 nM)

[P] C[C@@H]1C[C@H](n2c(Cc3cscn3)nc3cnc4ccc(Cl)cc4c32)CCO1
[Q] C[C@@H]1C[C@H](n2c(Cc3cn4ncsc4n3)nc3cnc4ccc(Cl)cc4c32)CCO1
[R] COc1ccc2ncc3nc(Cc4cc(C)on4)n([C@H]4CCO[C@@H](C)C4)c3c2c1 (single isomer, unassigned)
[S] COCc1cn(Cc2nc3cnc4ccccc4c3n2C2CCOCC2)nn1
List the 4 entries from lowest IC50 to highest IC50 value. Order the labels as requested and list them.
P, Q, S, R

[I] C[C@@H]1C[C@H](n2c(Cc3ccon3)nc3cnc4ccc(Br)cc4c32)C[C@H](C)O1
[II] C[C@H]1C[C@@H](n2c(Cc3ccon3)nc3cnc4ccc(C#N)cc4c32)CCO1 (racemic) [Example 21]
[III] c1ccc2oc(Cc3nc4cnc5ccccc5c4n3C3CCOCC3)nc2c1
Would you mind ranking these compounds by ascending IC50? Labels, ranked as asked.
II, I, III
(II: 4.5 nM, I: 52 nM, III: 139 nM)
